Source: the METLIN SMRT retention time set (Domingo-Almenara et al. 2019)

Assay: gradient 5% acetonitrile 3 min, to 50% in 2 min, to 85% in 15 min, held 3 min, 100 µL/min
Conditions: column: Zorbax Extend-C18 2.1 x 50 mm; eluents: water / acetonitrile, 0.1% formic acid
Mark not met for RP-LC retention time values under 700 s, and met for everything at or above.

- O=C(CCc1ccc2cc[nH]c2c1)NCc1ccccc1: met
- O=S(=O)(c1cccn2c(SCc3ccccc3F)nnc12)N1CCCC1: met
- NS(=O)(=O)c1nn2cc(-c3ccccc3)nc2s1: met
- CCOC(=O)c1ccccc1NC(=O)N1CCc2nc[nH]c2C1: not met
- CC(C)OCCCNC(=O)CC1=C2CCCCC2NC1=O (stereo unspecified): not met
- CN1CCC(OC2CCN(C(=O)c3ccc(Br)cc3)CC2)CC1: not met
- COc1ccccc1CNC(=O)CN1CCCC1=O: not met
- O=C(c1c(F)cccc1F)N1CCN=C1N1CCN(c2cccc(Cl)c2)CC1: met
- CCc1cnc2c(c1SCC(=O)N(C)c1ccccc1)c(=O)n(C)c(=O)n2C: met

====

Assay: gradient 5% acetonitrile 3 min, to 50% in 2 min, to 85% in 15 min, held 3 min, 100 µL/min
Details: column: Zorbax Extend-C18 2.1 x 50 mm; eluents: water / acetonitrile, 0.1% formic acid
Recorded RP-LC retention time values for a group of compounds are listed next.
measure: RP-LC retention time

• O=C(NCC(F)(F)F)C1CN(C(=O)COc2ccccc2F)C1 = 666 s
• Cc1ccc(-c2cc3c4nnc(SCC(=O)Nc5cccc(Cl)c5C)n4ccn3n2)cc1C = 1060 s
• COc1ccc(-c2nnc(N3CCC(C(=O)Nc4ccc(OC)cc4OC)CC3)o2)cc1 = 837 s
• O=C1CSC(c2ccccc2Cl)c2cc(Cl)ccc2N1 (stereo not given) = 987 s
• CCOc1ccc(CNC(=O)Cc2nnc(-c3ccccn3)o2)cc1 = 699 s

====

Test: gradient 5% acetonitrile 3 min, to 50% in 2 min, to 85% in 15 min, held 3 min, 100 µL/min
Conditions: column: Zorbax Extend-C18 2.1 x 50 mm; eluents: water / acetonitrile, 0.1% formic acid
# Lookup of reported RP-LC retention time keyed by entry
measure: RP-LC retention time

* CCc1nc2ccc(-c3noc(-c4ccc(C#N)cc4)n3)cc2n1CC | 716 s
* CCOc1ccc(-c2cn3ccn(-c4ccc(OCC)cc4)c(=O)c3n2)cc1 | 896 s
* CC1CCCCN1c1ccn2c(=O)n(CC(=O)Nc3ccc(F)cc3)nc2n1 (stereo not drawn) | 759 s

====

Assay: gradient 5% acetonitrile 3 min, to 50% in 2 min, to 85% in 15 min, held 3 min, 100 µL/min
Conditions: column: Zorbax Extend-C18 2.1 x 50 mm; eluents: water / acetonitrile, 0.1% formic acid
The reader will find reported RP-LC retention time values listed item by item below.
measure: RP-LC retention time (s)

- Cc1cc(C)cc(NC(=O)C2CCc3sc(C(=O)N4CCOCC4)cc3C2)c1 (centres undefined): 856
- CCn1c(=O)oc2cc(-c3noc(-c4ccc(F)cc4Cl)n3)ccc21: 1190
- FC(F)(F)c1ccc(Nc2nc3ccc(Oc4ccnc(-c5ncc(C(F)(F)F)[nH]5)c4)cc3[nH]2)cc1: 844
- CCCN(C)c1nccn2c(=O)n(CC(=O)Nc3ccc(Cl)cc3F)nc12: 735
- Cc1ccn2c(Nc3ccccc3C)c(-c3cccc(Br)c3)nc2c1: 819
- O=C(CN1CCN(Cc2ccccc2F)C1=O)NCc1cccc(Cl)c1: 831
- CCc1noc(CC2CCOC3(CCN(S(=O)(=O)c4c(C)cc(C)cc4C)CC3)C2)n1 (centres undefined): 1190
- COCCCNC(=O)c1c(C)sc2ccn(Cc3ccc(F)cc3)c(=O)c12: 746
- CC(=O)c1ccc(N2CCN(c3ccc(NC(=O)C4CCC4)c(C(=O)O)c3)CC2)cc1: 853
- Cc1ccnc(NS(=O)(=O)c2ccc(NC(=O)c3ccc4ncsc4c3)cc2)n1: 626
- O=S(=O)(c1ccccc1Br)N1CCCC1c1nc(-c2ccc(F)cc2)no1 (centres undefined): 1110
- CCCN1C(=O)COc2ccc(-c3noc(-c4ccc(OC)cc4C)n3)cc21: 1320
- Cc1nccnc1Sc1ccccc1: 956
- Cc1cnc(C2CCC2)n1CC1CCN(S(=O)(=O)Cc2cccc(F)c2)C1 (centres undefined): 683
- Cc1cc(C(=O)Nc2nnc(-c3cccs3)o2)no1: 632
- CCCNC(=O)N1CCC(CCOc2ccncc2)CC1: 571
- CCc1nc2cc(-c3noc(Cc4ccc(C)cc4)n3)ccc2o1: 1160
- CCn1cc(S(=O)(=O)N2CCC(N3CC4(CCCCC4)C3c3ccccc3)CC2)cn1 (centres undefined): 660
- Cc1ccc(C(=O)Nc2nc(-c3ccc4c(c3)NC(=O)C(C)O4)c(C)s2)cc1 (centres undefined): 1010
- COCCCNC(=O)c1ccc2c(c1)CCCN2S(=O)(=O)c1ccccc1: 822
- CCCN1C(=O)c2c(C(=O)NCCc3ccccc3)ncn2CC1(C)C(=O)NCCC(C)C (centres undefined): 891
- CCCNC(=O)Cn1c(=O)c2cnc(-c3ccc(Cl)cc3)nc2n(C)c1=O: 909
- CCOC(=O)c1cccc(N2C=C(C(=O)OC)S(=O)(=O)c3ccc(F)cc32)c1: 908
- COc1cccc(C2CC(c3cccc(NS(C)(=O)=O)c3)=NN2C(=O)C(C)(C)C)c1O (centres undefined): 820
- O=C(c1ccncc1)N1CCCCC1c1nc(-c2ccc(F)cc2)no1 (centres undefined): 673
- Cc1cc(C)cc(NC(=O)NCCc2cn(CC(C)C)c3ncccc23)c1: 905
- COc1ccc2c(c1OC)C(=O)O[C@@H]2[C@H]1c2cc3c(cc2CCN1C)OCO3: 660
- CC(C)CC(=O)Nc1nc(-c2ccc3c(c2)N(C)C(=O)CO3)cs1: 830
- CN(C)C[C@@H]1CN(c2ccncn2)C[C@H]1NC(=O)c1ccc2ncccc2c1: 652
